Data credit: patent US20250032632A1

Reported ELISA hMET vs parental values are given for each entry in this list.
- system: T1, human cMET (ELISA antigen) (human, UniProt P08581 25-932, limits assumed)
- T1 construct: also called hMET
- T1 sequence (P08581 25-932 limits assumed): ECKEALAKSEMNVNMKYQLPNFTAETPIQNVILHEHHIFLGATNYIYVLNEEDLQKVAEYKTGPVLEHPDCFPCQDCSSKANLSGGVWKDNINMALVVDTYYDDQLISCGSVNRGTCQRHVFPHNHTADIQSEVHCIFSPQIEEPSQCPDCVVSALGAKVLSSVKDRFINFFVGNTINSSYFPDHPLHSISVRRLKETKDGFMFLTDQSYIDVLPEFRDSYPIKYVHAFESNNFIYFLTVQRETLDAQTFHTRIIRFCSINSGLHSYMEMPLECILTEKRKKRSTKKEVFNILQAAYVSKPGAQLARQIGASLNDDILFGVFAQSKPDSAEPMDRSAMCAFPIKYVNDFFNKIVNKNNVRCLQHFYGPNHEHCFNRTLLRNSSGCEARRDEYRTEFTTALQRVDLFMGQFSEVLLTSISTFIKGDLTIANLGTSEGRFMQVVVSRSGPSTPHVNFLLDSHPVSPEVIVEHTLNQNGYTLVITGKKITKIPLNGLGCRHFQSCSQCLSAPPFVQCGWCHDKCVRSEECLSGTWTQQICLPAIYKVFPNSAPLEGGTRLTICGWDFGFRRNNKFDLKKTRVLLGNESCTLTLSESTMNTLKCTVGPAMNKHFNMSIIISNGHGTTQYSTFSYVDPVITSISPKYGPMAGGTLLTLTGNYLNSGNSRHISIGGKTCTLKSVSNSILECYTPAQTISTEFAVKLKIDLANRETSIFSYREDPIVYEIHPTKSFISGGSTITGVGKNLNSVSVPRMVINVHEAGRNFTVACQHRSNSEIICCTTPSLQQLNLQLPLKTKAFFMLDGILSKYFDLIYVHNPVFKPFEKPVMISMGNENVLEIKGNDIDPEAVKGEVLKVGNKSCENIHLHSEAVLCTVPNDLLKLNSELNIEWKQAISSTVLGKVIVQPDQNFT
- assayOverview: ELISA on human cMET, relative to parental P3D12
Field format: number, assumed fold vs parental, no unit text.

Example results:
I have this binder here, G2vkc (humanized P3D12, VH-ven + VL-cdr) (antibody, V domains shown, Humanized and isotype switched version of P3D12) VH: QVQLVQSGAEVAKPGASVKMSCKASGYTFTSYWMHWVKQAPGQGLDWIGYIKPSTDNTEYNQKFKDKATLTADKSTSTAYMQLSSLRSEDTAVYYCARSYGNYPLMDYWGQGTTVTVSS VL: QIVLTQSPATLSLSPGERATLSCSASSSVTSNYLYWYQQKPGSSPRLLIYSTSNLASGVPARFSGSGSGTSYTLTISRLEPEDFASYFCHQWSSYPPTFGSGTKLEIKR , and I need its recorded ELISA hMET vs parental.
1.1

Tell me the measured ELISA hMET vs parental of G2fkv (humanized P3D12, VH-fra + VL-ven) (antibody, V domains shown, Humanized and isotype switched version of P3D12) VH: QVQLQQSGAEVKKPGASVKVSCKASGYTFTSYWMHWVKQRPGQGLDWIGYIKPSTDNTEYNQKFKDRVTLTADKSTSTAYMQLSNLISEDTAVYYCARSYGNYPLMDYWGQGTSVTVSS VL: QIVLTQSPATMSASPGERVTLSCSASSSVTSNYLYWYQQKPGSSPRLWIYSTSNLASGVPARFSGSGSGTSYTLTISRMEPEDAASYFCHQWSSYPPTFGSGTKLEIKR , please.
1.7

New cases:
Give its ELISA hMET vs parental value. Item: G2ckc (humanized P3D12, VH-cdr + VL-cdr) (antibody, V domains shown, Humanized and isotype switched version of P3D12) VH: QVQLVQSGAEVKKPGASVKVSCKASGYTFTSYWMHWVKQAPGQGLDWIGYIKPSTDNTEYNQKFKDKATLTADKSTSTAYMELSSLRSEDTAVYYCARSYGNYPLMDYWGQGTTVTVSS VL: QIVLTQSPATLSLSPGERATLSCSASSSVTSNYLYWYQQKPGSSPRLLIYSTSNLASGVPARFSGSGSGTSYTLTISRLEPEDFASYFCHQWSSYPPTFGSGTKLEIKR
1

GET /values?readout=ELISA hMET vs parental&item= G2akc (humanized P3D12, VH-abb/sdr + VL-cdr) (antibody, V domains shown, Humanized and isotype switched version of P3D12) VH: QVQLVQSGAEVKKPGASVKVSCKASGYTFTSYWMHWVKQAPGQGLDWMGYIKPSTDNTEYAQKFQGRVTLTADKSTSTAYMELSSLRSEDTAVYYCARSYGNYPLMDYWGQGTTVTVSS VL: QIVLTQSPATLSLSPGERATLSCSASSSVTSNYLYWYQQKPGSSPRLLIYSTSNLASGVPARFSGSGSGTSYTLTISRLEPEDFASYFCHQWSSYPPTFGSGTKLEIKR
1.3

I am curious: what ELISA hMET vs parental value has been reported for G2cka (humanized P3D12, VH-cdr + VL-abb/sdr) (antibody, V domains shown, Humanized and isotype switched version of P3D12) VH: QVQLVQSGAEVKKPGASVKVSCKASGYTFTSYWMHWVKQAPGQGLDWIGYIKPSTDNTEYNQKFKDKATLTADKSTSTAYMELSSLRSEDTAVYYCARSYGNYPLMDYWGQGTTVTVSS VL: QIVLTQSPATLSLSPGERATLSCRASQSVTSNYLYWYQQKPGSSPRLLIYSTSNLASGVPARFSGSGSGTDYTLTISRLEPEDFASYFCHQWSSYPPTFGSGTKLEIKR ?
1.3

What value of measured ELISA hMET vs parental is listed for G2fkf (humanized P3D12, VH-fra + VL-fra) (antibody, V domains shown, Humanized and isotype switched version of P3D12) VH: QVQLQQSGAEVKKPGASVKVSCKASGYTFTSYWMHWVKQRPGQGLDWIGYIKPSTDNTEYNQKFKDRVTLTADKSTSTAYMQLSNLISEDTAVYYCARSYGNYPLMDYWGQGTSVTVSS VL: QIVLTQSPAILSLSPGERATLSCSASSSVTSNYLYWYQQKPGSSPKLLIYSTSNLASGVPARFSGSGSGTSYTLTISSLEAEDAASYFCHQWSSYPPTFGSGTKLEIKR ?
1.7

State the recorded ELISA hMET vs parental for this entry: G2vkf (humanized P3D12, VH-ven + VL-fra) (antibody, V domains shown, Humanized and isotype switched version of P3D12) VH: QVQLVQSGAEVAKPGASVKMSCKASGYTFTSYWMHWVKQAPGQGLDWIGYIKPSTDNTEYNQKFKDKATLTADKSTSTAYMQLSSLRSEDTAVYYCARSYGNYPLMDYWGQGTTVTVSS VL: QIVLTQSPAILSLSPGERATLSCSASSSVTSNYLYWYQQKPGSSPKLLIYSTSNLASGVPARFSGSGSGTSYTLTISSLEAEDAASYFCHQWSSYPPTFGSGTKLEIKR
1.1

Look up ELISA hMET vs parental: G2fka (humanized P3D12, VH-fra + VL-abb/sdr) (antibody, V domains shown, Humanized and isotype switched version of P3D12) VH: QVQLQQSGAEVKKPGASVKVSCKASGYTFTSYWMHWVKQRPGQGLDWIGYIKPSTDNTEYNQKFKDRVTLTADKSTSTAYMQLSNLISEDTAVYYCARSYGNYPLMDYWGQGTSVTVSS VL: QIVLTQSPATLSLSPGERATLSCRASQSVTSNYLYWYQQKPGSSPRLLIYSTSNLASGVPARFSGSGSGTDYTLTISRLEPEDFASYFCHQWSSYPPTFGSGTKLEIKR
1.8

What value of measured ELISA hMET vs parental is listed for G2fkc (humanized P3D12, VH-fra + VL-cdr) (antibody, V domains shown, Humanized and isotype switched version of P3D12) VH: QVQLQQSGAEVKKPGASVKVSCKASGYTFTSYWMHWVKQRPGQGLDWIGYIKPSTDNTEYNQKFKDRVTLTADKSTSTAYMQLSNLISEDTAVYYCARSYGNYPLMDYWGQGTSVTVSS VL: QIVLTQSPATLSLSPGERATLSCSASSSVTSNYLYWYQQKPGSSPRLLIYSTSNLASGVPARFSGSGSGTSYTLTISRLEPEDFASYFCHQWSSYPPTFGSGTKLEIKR ?
1.7

ELISA hMET vs parental lookup needed for G2akv (humanized P3D12, VH-abb/sdr + VL-ven) (antibody, V domains shown, Humanized and isotype switched version of P3D12) VH: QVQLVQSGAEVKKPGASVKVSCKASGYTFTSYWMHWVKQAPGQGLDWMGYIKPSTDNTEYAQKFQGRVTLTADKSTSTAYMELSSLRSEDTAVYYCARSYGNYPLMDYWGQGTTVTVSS VL: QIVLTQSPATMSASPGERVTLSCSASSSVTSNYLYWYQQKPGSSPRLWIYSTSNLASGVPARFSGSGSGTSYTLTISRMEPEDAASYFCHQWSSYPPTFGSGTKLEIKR , thanks.
1.6
